The measured values listed here are drawn from patent US20230021388A1.

TARGET OR SYSTEM: T1, recombinant human ROR1 extracellular domain (human, UniProt Q01973 30-406)
T1 construct: biotinylated for the filter lifts; also called huROR1-ECD; human ROR1-ECD
T1 sequence (Q01973 30-406 limits assumed): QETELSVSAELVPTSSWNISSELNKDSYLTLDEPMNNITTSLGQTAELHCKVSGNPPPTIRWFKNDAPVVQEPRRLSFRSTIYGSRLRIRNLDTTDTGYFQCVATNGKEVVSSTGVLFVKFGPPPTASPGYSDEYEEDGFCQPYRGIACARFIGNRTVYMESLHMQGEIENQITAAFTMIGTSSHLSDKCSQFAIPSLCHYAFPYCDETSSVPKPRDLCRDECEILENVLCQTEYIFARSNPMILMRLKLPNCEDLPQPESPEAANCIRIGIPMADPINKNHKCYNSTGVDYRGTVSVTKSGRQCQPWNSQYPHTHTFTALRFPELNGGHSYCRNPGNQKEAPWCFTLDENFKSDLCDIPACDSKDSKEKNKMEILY
ASSAY REMARKS: ELISA, soluble Fab on coated huROR1-ECD
Each entry below carries its reported pKd.
pKd (log units): -log10 of the concentration in mol/L.

Some binders with recorded pKd:
Ab1 Fab variant L2 Q71V (Fab, V domains shown, Fab; also called SGSTLVS) VH: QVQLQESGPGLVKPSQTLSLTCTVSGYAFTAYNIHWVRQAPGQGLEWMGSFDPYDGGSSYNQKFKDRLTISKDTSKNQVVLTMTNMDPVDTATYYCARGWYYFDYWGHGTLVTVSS VL: DIVMTQTPLSLPVTPGEPASISCRASKSISKYLAWYQQKPGQAPRLLIYSGSTLVSGIPPRFSGSGYGTDFTLTINNIESEDAAYYFCQQHDESPYTFGEGTKVEIK | 8.89
Ab1 Fab variant H2 G67P (Fab, V domains shown, Fab) VH: QVQLQESGPGLVKPSQTLSLTCTVSGYAFTAYNIHWVRQAPGQGLEWMGSFDPYDGPSSYNQKFKDRLTISKDTSKNQVVLTMTNMDPVDTATYYCARGWYYFDYWGHGTLVTVSS VL: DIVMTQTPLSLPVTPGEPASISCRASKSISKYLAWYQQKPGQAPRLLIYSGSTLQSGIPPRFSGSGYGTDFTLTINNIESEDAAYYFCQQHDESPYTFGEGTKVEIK | 9.22
Ab1 Fab variant H1 N40P (Fab, V domains shown, Fab) VH: QVQLQESGPGLVKPSQTLSLTCTVSGYAFTAYPIHWVRQAPGQGLEWMGSFDPYDGGSSYNQKFKDRLTISKDTSKNQVVLTMTNMDPVDTATYYCARGWYYFDYWGHGTLVTVSS VL: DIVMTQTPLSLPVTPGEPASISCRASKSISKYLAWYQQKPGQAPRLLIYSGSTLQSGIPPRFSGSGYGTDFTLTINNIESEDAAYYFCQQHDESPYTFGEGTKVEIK | 7.40

In the following, a different binder is considered.
Query: Fill in: pKd of Ab1 Fab variant L2 T69H (Fab, V domains shown, Fab; also called SGSHLQS) VH: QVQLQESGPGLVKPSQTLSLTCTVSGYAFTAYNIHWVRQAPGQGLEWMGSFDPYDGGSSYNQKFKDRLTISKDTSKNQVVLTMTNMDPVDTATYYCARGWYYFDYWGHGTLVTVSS VL: DIVMTQTPLSLPVTPGEPASISCRASKSISKYLAWYQQKPGQAPRLLIYSGSHLQSGIPPRFSGSGYGTDFTLTINNIESEDAAYYFCQQHDESPYTFGEGTKVEIK is ___
Result: 8.82
